Quick reference for GI50 among some compounds
- System: CCRF-CEM leukemia
- Protocol details: NCI tumour cell line growth inhibition, 48 h

{"columns": ["Compound", "Measured target", "GI50"],
 "data": [
  ["Cc1cc(Nc2nc(-c3cccnc3)nc3ccccc23)n[nH]1", "CCRF-CEM leukemia", "4.83 µM"],
  ["CCN(Cc1ccc(F)cc1)c1ccc(CO)c(C)c1", "CCRF-CEM leukemia", "19.7 µM"],
  ["COc1cccc(-c2nn(-c3ccccc3)cc2-c2ccnc(NCCNC(=O)Nc3cccc(C(F)(F)F)c3)c2)c1", "CCRF-CEM leukemia", "2.46 µM"],
  ["COC1=C(C)C(=O)c2c(c(CCCl)c3n2CCC3O)C1=O (stereo not drawn)", "CCRF-CEM leukemia", "4.6 µM"],
  ["COc1cccc(-c2ccc3c(c2)C2CCN(Cc4ccccc4)C3C2)c1 (stereo not drawn)", "CCRF-CEM leukemia", "9.67 µM"],
  ["COc1cccc2c1-c1c(c3ccc([N+](=O)[O-])cc3c(=O)n1CCCN)C2=O", "CCRF-CEM leukemia", "0.183 µM"],
  ["CC(C)N1CCN(Cc2ccc3c(NNC(=O)c4ccccc4)nc4cc(F)ccc4n23)CC1", "CCRF-CEM leukemia", "0.146 µM"],
  ["Nc1ccccc1.[C-]#[O+].[C-]#[O+].[C-]#[O+].[C-]#[O+].[C-]#[O+].[Cr]", "CCRF-CEM leukemia", "2.93 µM"],
  ["COc1ccc(/C=c2\\sc3n(c2=O)C2C(NN=3)N(C)C(=O)N2C)cc1 (stereo not drawn)", "CCRF-CEM leukemia", "0.426 µM"],
  ["Cn1nc(-c2ccc(Cl)cc2)nc2c(=O)n(C)c(=O)nc1-2", "CCRF-CEM leukemia", "1.49 µM"],
  ["O=C(CN1CCN(c2cc3c(cc2F)c(=O)c(C(=O)O)cn3C2CC2)CC1)Nc1nc(-c2ccc(Cl)cc2)cs1", "CCRF-CEM leukemia", "4.39 µM"],
  ["CCCCCCNC(=O)Oc1ccc(/C(=C(/C)Cc2ccc(OC)cc2)c2ccc(OCCCN(C)C)cc2)cc1", "CCRF-CEM leukemia", "16.3 µM"],
  ["Cc1ccc(-c2c3c(nn2-c2ccc(S(N)(=O)=O)cc2)-c2ccccc2C3)cc1", "CCRF-CEM leukemia", "3.56 µM"]
]}
